Molecular target: MASP-2 CCP2-SP (Homo sapiens (Human), UniProt O00187)
Sequence (O00187 445-686): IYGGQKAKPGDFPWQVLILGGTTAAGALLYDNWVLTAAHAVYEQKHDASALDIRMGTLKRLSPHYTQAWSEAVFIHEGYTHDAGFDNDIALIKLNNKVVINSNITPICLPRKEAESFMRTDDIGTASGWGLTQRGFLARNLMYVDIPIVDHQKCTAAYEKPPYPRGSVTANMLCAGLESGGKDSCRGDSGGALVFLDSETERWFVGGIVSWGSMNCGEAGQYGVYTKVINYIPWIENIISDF
Sequence (O00187 364-432 partner): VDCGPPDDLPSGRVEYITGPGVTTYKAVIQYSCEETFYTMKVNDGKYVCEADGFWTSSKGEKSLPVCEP
Experiment: MASP-2 co-crystallization, X-ray crystallography and structure analysis (H-bonds, van der Waals contacts)
Set-up: unit not given beside the values
Conditions: Table A5-1 pharmacophore: distance between elements, S2/S1 region
Structures can show the parent of a compound that is named as a salt.
measureName: d(C3,CA1)
Respond numerically, and do not add a unit to the figure.

compound	dataValue
Cc1nc(N)ccc1CNC(=O)[C@H](C)NC(=O)[C@H]1C[C@H](Cc2cc(Cl)cc(Cl)c2)CN1 [compound 1435, Dihydrochloride]	2.85
Cc1nc(N)ccc1CNC(=O)[C@H](C)NC(=O)[C@H]1C[C@H](Cc2ccccc2Br)CN1.O=C(O)C(F)(F)F.O=C(O)C(F)(F)F [1372_A]	2.85

Returns the measured d(C3,CA1) for the input compound. Input: Cc1nc(N)ccc1CNC(=O)[C@H](C)NC(=O)[C@H]1C[C@H](Cc2cccc(Cl)c2)CN1.Cl.Cl [1328_1]
2.85

---

Target: MASP-2 CCP2-SP (Homo sapiens (Human), UniProt O00187)
Assay: MASP-2 co-crystallization, X-ray crystallography and structure analysis (H-bonds, van der Waals contacts)
Parameters: unit not given beside the values
Settings: Table A5-1 pharmacophore: distance between elements, S2/S1 region
Where a name gives a salt, the structure may show the parent alone.
measureName: d(CA1,N1)2
Respond numerically, and do not add a unit to the figure.

Take a look at these entries with their results.
compound	targetEntity	d(CA1,N1)2
Cc1nc(N)ccc1CNC(=O)[C@H](C)NC(=O)[C@H]1C[C@H](Cc2cc(Cl)cc(Cl)c2)CN1 [compound 1435, Dihydrochloride]	MASP-2 CCP2-SP (Homo sapiens (Human), UniProt O00187)	1.38
Cc1nc(N)ccc1CNC(=O)[C@H](C)NC(=O)c1cc(Cc2ccccc2)n[nH]1	MASP-2 CCP2-SP (Homo sapiens (Human), UniProt O00187)	1.39

Returns the measured d(CA1,N1)2 for the input compound. Input: Cc1nc(N)ccc1CNC(=O)[C@H](C)NC(=O)[C@H]1C[C@@H](c2ccccc2)CCN1CCC(=O)O [compound 1411, Trifluoroacetate salt]
1.34

Returns the measured d(CA1,N1)2 for the input compound. Input: Cc1nc(N)ccc1CNC(=O)C(C)NC(=O)[C@H]1C[C@H](c2cccc(-c3ccccc3)c2)CN1 (stereo in doubt)
1.36

Returns the measured d(CA1,N1)2 for the input compound. Input: Cc1nc(N)ccc1CNC(=O)[C@H](C)NC(=O)[C@H]1C[C@@H](c2cccc3ccccc23)CCN1.Cl.Cl [1297_2]
1.37

Returns the measured d(CA1,N1)2 for the input compound. Input: Cc1nc(N)ccc1CNC(=O)[C@H](C)NC(=O)[C@H]1C[C@H](Cc2ccccc2-c2ccccc2)CN1 [compound 1373, Di-trifluoroacetate salt]
1.37

Returns the measured d(CA1,N1)2 for the input compound. Input: Cc1nc(N)ccc1CNC(=O)[C@H](C)NC(=O)[C@H]1C[C@H](Cc2ccccc2Br)CN1.O=C(O)C(F)(F)F.O=C(O)C(F)(F)F [1372_A]
1.38

Returns the measured d(CA1,N1)2 for the input compound. Input: Cc1nc(N)ccc1CNC(=O)[C@H](C)NC(=O)[C@H]1C[C@H](Cc2cccc(Cl)c2)CN1.Cl.Cl [1328_4]
1.37

Returns the measured d(CA1,N1)2 for the input compound. Input: Cc1nc(N)ccc1CNC(=O)[C@H](C)NC(=O)[C@H]1C[C@@H](Cc2ccccc2)CCN1
1.36

Returns the measured d(CA1,N1)2 for the input compound. Input: Cc1nc(N)ccc1CNC(=O)[C@H](C)NC(=O)[C@H]1C[C@H](Cc2cccc(-c3ccccc3)c2)CN1
1.38

Returns the measured d(CA1,N1)2 for the input compound. Input: Cc1nc(N)ccc1CNC(=O)[C@H](C)NC(=O)[C@H]1C[C@@H](c2cccc3ccccc23)CCN1.Cl.Cl [1297_4]
1.37

Returns the measured d(CA1,N1)2 for the input compound. Input: Cc1nc(N)ccc1CNC(=O)[C@H](C)NC(=O)[C@H]1C[C@H](Cc2ccccc2Br)CN1.O=C(O)C(F)(F)F.O=C(O)C(F)(F)F [1372_B]
1.38

Returns the measured d(CA1,N1)2 for the input compound. Input: Cc1nc(N)ccc1CNC(=O)[C@H](C)NC(=O)[C@H]1C[C@H](Cc2cc(-c3ccccc3)cs2)CN1 [compound 1399, Dihydrochloride]
1.38

---

Reported van der Waals contact distance, MASP-2 PHE 529 atom CD1 values follow for various molecules
Target: MASP-2 CCP2-SP (Homo sapiens (Human), UniProt O00187)
Assay: MASP-2 co-crystallization, X-ray crystallography and structure analysis (H-bonds, van der Waals contacts)
Details: Table A2-3
Where a name gives a salt, the structure may show the parent alone.
Respond numerically, and do not add a unit to the figure.

Take a look at these entries with their results.
molecule	dataValue
N=C(N)c1ccc(CNC(=O)C(CF)NC(=O)[C@H](N)CCc2ccccc2)cc1 (stereo partly shown) [compound 1050, Dihydrochloride]	3.61
C[C@H](NC(=O)C1C[C@@H](c2ccccc2)CCN1)C(=O)NCc1ccc(C(=N)N)cc1 (stereo in doubt)	3.71
C[C@H](NC(=O)[C@H](N)CCc1cccc(Cl)c1)C(=O)NCc1ccc(C(=N)N)cc1	3.38

Next:
State its van der Waals contact distance, MASP-2 PHE 529 atom CD1 on MASP-2 CCP2-SP (Homo sapiens (Human), UniProt O00187): C[C@H](NC(=O)[C@H](N)CCc1cc(Cl)cc(Cl)c1)C(=O)NCc1ccc(C(=N)N)cc1
3.52

---

Reported Pharmacophore protein distance to MET_658 (second MET_658 column) values follow for various compounds
Molecular target: MASP-2 CCP2-SP (Homo sapiens (Human))
Test: MASP-2 co-crystallization, X-ray crystallography and structure analysis (H-bonds, van der Waals contacts)
Conditions: Table A8-6; 9th residue column; nearest protein atom in cell to the left
Respond numerically, and do not add a unit to the figure.

Take a look at these entries with their results.
compound	dataValue
O=c1oc(-c2ccccc2[N+](=O)[O-])nc2ccccc12	3.80
C[C@H](NC(=O)[C@H]1C[C@@H](c2ccccc2)CN1)C(=O)NCc1ccc(C(=N)N)cc1	3.03
C[C@H](NC(=O)[C@H](N)CCCc1ccccc1)C(=O)NCc1ccc(C(=N)N)cc1.Cl.Cl [1042_3]	4.20
N=C(N)c1ccc(CNC(=O)[C@@H]2CCN2C(=O)[C@H]2Cc3ccccc3CN2)cc1	3.46
C[C@H](NC(=O)[C@H]1Cc2c([nH]c3ccccc23)CN1)C(=O)NCc1ccc(C(=N)N)cc1.Cl.Cl [1097_1]	3.49
C[C@H](NC(=O)[C@H]1C[C@@H](c2ccccc2)CCN1)C(=O)NCc1ccc(C(=N)N)cc1 (stereo in doubt)	3.79

Next:
Returns the measured Pharmacophore protein distance to MET_658 (second MET_658 column) for the input compound. Input: C[C@H](NC(=O)[C@H](N)CCc1ccccc1)C(=O)NCc1ccc(C(=N)N)cc1
3.26

---

Target: UniProt:O00187
Assay: MASP-2 co-crystallization, X-ray crystallography and structure analysis (H-bonds, van der Waals contacts)
Conditions: Table A4-1; element C3
Structures can show the parent of a compound that is named as a salt.
Reported Ligand-pharmacophore element distance, pharmacophore element C3 values follow for various compounds
Respond numerically, and do not add a unit to the figure.

compound	dataValue
Cc1nc(N)ccc1CNC(=O)C(C)NC(=O)C1CC(c2cccc3ccccc23)CCN1.Cl.Cl (stereo not shown) [1297_1]	0.3

State its Ligand-pharmacophore element distance, pharmacophore element C3 on UniProt:O00187: C[C@H](NC(=O)[C@H]1C[C@H](Cc2ccccc2)CN1)C(=O)NCc1ccc(C(=N)N)cc1.Cl.Cl [1306_1]
0

State its Ligand-pharmacophore element distance, pharmacophore element C3 on UniProt:O00187: Cc1nc(N)ccc1CNC(=O)[C@H](C)NC(=O)[C@H]1C[C@H](Cc2ccccc2Br)CN1.O=C(O)C(F)(F)F.O=C(O)C(F)(F)F [1372_A]
0.09

State its Ligand-pharmacophore element distance, pharmacophore element C3 on UniProt:O00187: C[C@H](NC(=O)[C@H](N)C1Cc2ccccc2C1)C(=O)NCc1ccc2nc(N)[nH]c2c1 [compound 1059]
0

State its Ligand-pharmacophore element distance, pharmacophore element C3 on UniProt:O00187: Cc1nc(N)ccc1CNC(=O)[C@H](C)NC(=O)[C@H]1C[C@H](Cc2ccccc2-c2ccccc2)CN1 [compound 1373, Di-trifluoroacetate salt]
0.08

State its Ligand-pharmacophore element distance, pharmacophore element C3 on UniProt:O00187: C[C@H](NC(=O)[C@H]1C[C@@H](c2ccccc2)CCN1)C(=O)NCc1cc(Cl)ccc1O.Cl [1078_11]
0

State its Ligand-pharmacophore element distance, pharmacophore element C3 on UniProt:O00187: C[C@H](NC(=O)[C@H](N)CCCc1ccccc1)C(=O)NCc1ccc(C(=N)N)cc1.Cl.Cl [1042_3]
0
